Target: Glucocorticoid receptor (Homo sapiens)
Assay: qHTS assay to identify small molecule agonists of the glucocorticoid receptor (GR) signaling pathway (AID 720691)
Settings: GR-bla HeLa, beta-lactamase reporter ratio, 18 h
Records with an inconclusive call do not appear. The source made the active and inactive calls. The call rests on the fitted dose curve; in most records, active means well fitted activation curve with a large enough effect in the signal ratio in the repeat runs (not every such curve was filed as active); inconclusive means weak or mixed curves, or effect the other way; inactive means no such curve, though single readings can be large or run the other way; the % refers to the signal ratio.
Value kind: outcome

Some molecules with known outcome results, for comparison:
Identify outcome associated with the molecule CC(C)(CO)COC(=O)C(C)(C)CO
inactive

Identify outcome associated with the molecule CC(C)(C)C(=O)C1C(=O)c2ccccc2C1=O
inactive

Identify outcome associated with the molecule OC1CCCC1
inactive

Identify outcome associated with the molecule CN(C)c1cccc(O)c1
inactive

Now, please, on to the next molecule.
Identify outcome associated with the molecule NC(=O)/N=N/C(N)=O
inactive
